# systemUnderTest: SHP2-C SH2;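 also: peptide library displayed on the E. coli surface as eCPX fusions, selected cells deep-sequenced, score is each peptide's frequency after selection divided by its frequency in the input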
# methodDescription: SH2 binding enrichment of the phosphorylated peptide, bacterial display (enrichment ratio); higher = better substrate or ligand; peptides without Tyr show the background
Grouping by measured SH2 binding enrichment is done with the following cut points: lower bin (below 0.6), middle bin (0.6 to below 0.8), upper bin (0.8 or more)

| primarySequence | systemUnderTest | classification |
| --- | --- | --- |
| TFGQVYKGPHV [TNIK_Y40_R43P_YF] | SHP2-C SH2 | lower bin |
| HFVFFYSFLLK [PTEN_Y178_R173H_YF] | SHP2-C SH2 | upper bin |
| KIIRRYVSSEG [ANK2_Y3907] | SHP2-C SH2 | lower bin |
| HHTDEYEFDEL [TGM1_Y134_YF] | SHP2-C SH2 | upper bin |
| ETDPRYFDEEF [AKT1_Y437_T435P] | SHP2-C SH2 | lower bin |
| EEGESHVCSSD [DCX_Y125_Y125H] | SHP2-C SH2 | upper bin |
| EYHRLYEEYTR [PIK3R1_Y467_D464H] | SHP2-C SH2 | middle bin |
| RFLRGYEQDAY [HLA-A_Y137_R138E] | SHP2-C SH2 | upper bin |
| RSFPSYYTSHV [NEFL_Y442] | SHP2-C SH2 | upper bin |
| GQSKGYRPKLF [SIPA1L3_Y1376_YF] | SHP2-C SH2 | lower bin |
| IYETDYYQKGG [INSR_Y1189_R1191Q] | SHP2-C SH2 | lower bin |
| KPPFSYNALIM [FOXG1_Y186] | SHP2-C SH2 | lower bin |
| KGFRGYSFDDI [TMEM230_Y110_YF] | SHP2-C SH2 | middle bin |
| AAFNRYDQERF [CDC73_Y293_YF] | SHP2-C SH2 | lower bin |
| TAPYNYSYIFK [RAB14_Y8] | SHP2-C SH2 | upper bin |
| KVKEQYQDVPM [PKP2_Y659] | SHP2-C SH2 | middle bin |
| RDVEQYVNNVN [PCDH19_Y1097_L1094V] | SHP2-C SH2 | lower bin |
| FADTAYNYRHG [PAH_Y166_I164T] | SHP2-C SH2 | upper bin |
| SDGHEYIYVDP [PDGFRB_Y579] | SHP2-C SH2 | middle bin |
| PVQAASQKVVA [HBB_Y131_Y131S] | SHP2-C SH2 | middle bin |
| AAVDEYLEYRR [FAM221A_Y17] | SHP2-C SH2 | upper bin |
| YLENYYDLEKD [MMP3_Y42_K45E] | SHP2-C SH2 | lower bin |
| TQIGQYGNGLK [MORC2_Y100] | SHP2-C SH2 | middle bin |
| LDYNEYFRYLN [HPRT1_Y198_D201Y] | SHP2-C SH2 | upper bin |
| FGHTFYNQAIM [MCCC2_Y196_R193H] | SHP2-C SH2 | upper bin |
| SLLLSYYLIKW [NUP160_Y773_P768S] | SHP2-C SH2 | upper bin |
| SCPANYFAFKI [FAM3D_Y65_P60S] | SHP2-C SH2 | upper bin |
| ATVRPYRPYII [LRP5_Y1528_A1525V] | SHP2-C SH2 | middle bin |
| WCKPLYFSCAV [MMS22L_Y28_P27L] | SHP2-C SH2 | upper bin |
| DDEESYENVPR [FCRL3_Y722_N721S] | SHP2-C SH2 | middle bin |
| GDYLSYREFHS [ERBIN_Y1107] | SHP2-C SH2 | lower bin |
| DDSSAYRSVDE [BCKDHA_Y345] | SHP2-C SH2 | middle bin |
| NKEAIYSGFIR [SMCHD1_Y283_YF] | SHP2-C SH2 | middle bin |
| GAALAYGLDKS [HSPA9_Y230_A225G] | SHP2-C SH2 | middle bin |
| VHNLDYFKQTT [FGFR3_Y647_K650Q_YF] | SHP2-C SH2 | lower bin |
| TNRSVYFKPSL [NUP153_Y382] | SHP2-C SH2 | upper bin |
| SESSFYKSLNL [NGEF_Y289_A286S_YF] | SHP2-C SH2 | lower bin |
| QAKRKYQEVSK [FES_Y156_A159V] | SHP2-C SH2 | lower bin |
| RIVRKYKKVRF [F8_Y442_G439V] | SHP2-C SH2 | lower bin |
| AAAAMYTFLPD [MYORG_Y36] | SHP2-C SH2 | middle bin |
| YQEPVYSVAFS [TBL1X_Y509_H504Y] | SHP2-C SH2 | lower bin |
| LTFHMYADPNI [SOS1_Y618_F623I_YF] | SHP2-C SH2 | upper bin |
| SNYRAYATEPH [TNNI3_Y29] | SHP2-C SH2 | lower bin |
| GGSSPYSRRLA [CDK13_Y351_P356A] | SHP2-C SH2 | upper bin |
| HNLFSYPTKHE [MYO3A_Y1396_YF] | SHP2-C SH2 | lower bin |

----------
# Tested on: c-Src
# methodDescription: phosphorylation enrichment, bacterial display (enrichment ratio); higher = better substrate or ligand; peptides without Tyr show the background
Listing of recorded phosphorylation enrichment by entry.
observable: phosphorylation enrichment

| primarySequence | observable | experimentalResult |
| --- | --- | --- |
| GNHISYFQSDG [CACNA1C_Y1757_V1755I_YF] | phosphorylation enrichment | 0.395 |
| LLIMEYAKFGS [RET_Y806_V804M_YF] | phosphorylation enrichment | 1.96 |
| MHLRQYELLGG [GNAS_Y391] | phosphorylation enrichment | 0.516 |
| AGREEYSAMRD [KRAS_Y64_Q61R] | phosphorylation enrichment | 0.421 |
| QRPGLYDRPGA [HNRNPH2_Y210_P209L] | phosphorylation enrichment | 0.806 |
| VQNIVYHTASI [CYP39A1_Y102_R103H] | phosphorylation enrichment | 0.636 |
| CRPPYYHRNCM [HGD_Y334_F329C] | phosphorylation enrichment | 0.452 |
| QGGRRYMMIVD [GAA_Y438] | phosphorylation enrichment | 0.403 |
| SPQAHYRLSAF [ADAMTS9_Y100_S96P] | phosphorylation enrichment | 0.503 |
| CDIARYIVSQL [MAST2_Y461_P459A] | phosphorylation enrichment | 0.478 |
| PQQLWYTHKKK [UBTF_Y207_E210K] | phosphorylation enrichment | 0.7 |
| GGCQEYTGAPF [NAXD_Y85_YF] | phosphorylation enrichment | 0.528 |
| VCRHNYGVVES [HLA-DRB1_Y112_Y107V] | phosphorylation enrichment | 0.361 |
| GGGFGYQKTKK [DDX18_Y643] | phosphorylation enrichment | 0.3 |
| SLTRLCVGENA [NLRP3_Y861_Y861C] | phosphorylation enrichment | 0.445 |
| LDYNEYFRYLN [HPRT1_Y198_D201Y] | phosphorylation enrichment | 2.04 |
| HEKKAYAFCGT [RPS6KA3_Y226_S227A] | phosphorylation enrichment | 0.498 |
| QAKRKYQEVSK [FES_Y156_A159V] | phosphorylation enrichment | 0.193 |
| TSPKSYPSQKH [CAP2_Y316] | phosphorylation enrichment | 0.466 |
| AEYGLYRAMVR [VSX2_Y222_G223R] | phosphorylation enrichment | 6.94 |
| CDTKLYTSVPN [DNTTIP2_Y427_A430V] | phosphorylation enrichment | 0.849 |
| RPYRPYIIRGM [LRP5_Y1531] | phosphorylation enrichment | 0.917 |
| VPDTNYTSDEE [STK33_Y439_A437T] | phosphorylation enrichment | 0.465 |
| VHNLNYYKKTT [FGFR3_Y647_D646N] | phosphorylation enrichment | 0.487 |
| VDSLRYIYPKL [EIF2B3_Y92_A87V] | phosphorylation enrichment | 0.424 |
| DDSSAYRSVDE [BCKDHA_Y345] | phosphorylation enrichment | 0.568 |
| FQSKHYACIRQ [TIMP3_Y182_YF] | phosphorylation enrichment | 0.425 |
| HQEPVCSVAFS [TBL1X_Y509_Y509C] | phosphorylation enrichment | 0.794 |

----------
# systemUnderTest: FGFR3 (UniProt P22607)
# Sequence (P22607 whole entry, looked up): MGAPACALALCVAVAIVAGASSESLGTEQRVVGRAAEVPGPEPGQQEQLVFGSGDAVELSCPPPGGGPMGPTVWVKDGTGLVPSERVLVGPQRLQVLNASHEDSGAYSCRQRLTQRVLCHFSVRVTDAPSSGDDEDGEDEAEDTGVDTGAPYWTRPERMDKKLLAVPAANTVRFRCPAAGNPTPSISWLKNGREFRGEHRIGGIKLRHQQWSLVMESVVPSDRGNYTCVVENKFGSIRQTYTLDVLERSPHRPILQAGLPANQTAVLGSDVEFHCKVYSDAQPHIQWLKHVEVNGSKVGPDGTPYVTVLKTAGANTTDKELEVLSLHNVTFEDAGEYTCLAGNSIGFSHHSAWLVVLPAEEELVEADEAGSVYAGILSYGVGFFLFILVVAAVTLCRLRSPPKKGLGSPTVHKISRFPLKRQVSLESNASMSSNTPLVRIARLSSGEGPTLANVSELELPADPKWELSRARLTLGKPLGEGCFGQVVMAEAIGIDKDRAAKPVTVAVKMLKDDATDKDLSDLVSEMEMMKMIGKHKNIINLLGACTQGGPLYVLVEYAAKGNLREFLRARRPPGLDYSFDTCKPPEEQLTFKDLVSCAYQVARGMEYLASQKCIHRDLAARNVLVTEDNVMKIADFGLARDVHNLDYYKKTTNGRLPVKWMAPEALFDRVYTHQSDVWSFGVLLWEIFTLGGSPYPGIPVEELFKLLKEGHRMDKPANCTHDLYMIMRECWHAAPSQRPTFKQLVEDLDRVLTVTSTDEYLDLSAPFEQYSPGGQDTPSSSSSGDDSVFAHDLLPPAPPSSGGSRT
# methodDescription: phosphorylation enrichment, bacterial display (enrichment ratio); higher = better substrate or ligand; peptides without Tyr show the background
Grouping by measured phosphorylation enrichment is done with the following cut points: low = under 0.5, intermediate = from 0.5 up to 0.8, high = 0.8 and over

| primarySequence | classification |
| --- | --- |
| IGEGTYGVVFK [CDK2_Y15_YF] | intermediate |
| VEDQFYCVDCF [FHL1_Y208_YF] | high |
| REGKIYEFNQV [ZNF665_Y162_H157R_YF] | high |
| RFLERYIFNRE [HLA-DPB1_Y57_YF] | intermediate |
| HRGHLYLAIEF [TEK_Y899_Y897H_YF] | high |
| KGELRYMHSRV [ABCD1_Y281] | low |
| GIVKAYYVRAR [AIPL1_Y267] | intermediate |
| AIMSFYAALIN [RYR1_Y2426_D2431N] | intermediate |
| ETDSEYVKLSK [C7orf57_Y70_A74S] | intermediate |
| EDGFAYVPLKD [PRIM2_Y208] | intermediate |
| TSYSGYRYHRH [NKAPL_Y94] | low |
| RLNWIYFKDQT [RS1_Y165_YF] | high |
| GGTPLYMDRQG [AGXT_Y194] | low |
